# Tested on: L1210 leukemia ip in BDF1 mice, survival T/C
# ASSAY_NAME: NCI In Vivo Anticancer Drug Screen. Data for tumor model L1210 Leukemia (intraperitoneal) in B6D2F1 (BDF1) mice
# PROTOCOL_CONDITIONS: endpoint: mean survival time; dose: 12.5 mg/kg/injection; schedule: Q04DX003 (ip); vehicle: Klucel (hydroxypropylcellulose) (HPC); higher = longer survival
Toxic doses and inconclusive results are not listed.
# T/C annotations

// below: answered compounds
[[record]]
compound = "Cc1cc(C)c(C(=O)O)c(C)c1.[Hg]"
result = "88 % of control"

[[record]]
compound = "CCOC(=O)c1cnc(SC)nc1Nc1c(Br)cc(Br)cc1Br"
result = "97 % of control"

[[record]]
compound = "C[n+]1ccccc1/C=C/c1ccc2c(c1)OCO2"
result = "95 % of control"

[[record]]
compound = "CCCCSCCOC(=O)C1C2CCC(O2)C1C(=O)O (stereo not given)"
result = "95 % of control"


Moving on to the next compound.
Any idea what its T/C is? The compound is CCN1CCC(CNc2cc(C)nc(/N=C(\N)Nc3cc(Cl)cc(Cl)c3)n2)C1 (stereo not given)
102 % of control

---

# Test system: L1210 leukemia ip in BDF1 mice, survival T/C
# ASSAY_NAME: NCI In Vivo Anticancer Drug Screen. Data for tumor model L1210 Leukemia (intraperitoneal) in B6D2F1 (BDF1) mice
# PROTOCOL_CONDITIONS: endpoint: mean survival time; dose: 400.0 mg/kg/injection; schedule: Q04DX002 (ip); vehicle: saline; higher = longer survival
Toxic doses and inconclusive results are not listed.
# T/C annotations

[[record]]
molecule = "Cn1ncc(C(N)=O)c1N"
measurement_label = "T/C"
result = "90 % of control"


Hi! What's the reported T/C for CCCC(=O)N1CCCC(C)C1 (stereo not given) on L1210 leukemia ip in BDF1 mice, survival T/C?
104 % of control

Repeat for the following molecule: O=C1OCC/C1=C\C1CO1 (stereo not given)
101 % of control

Repeat for the following molecule: CCN=C(N)SCCS(=O)(=O)O
92 % of control

Repeat for the following molecule: COC1=CC23CCN(C)C(CCc4cc(OC)c(OC)c(OC)c42)C3=CC1=O (stereo not given)
103 % of control

---

# Tested on: L1210 leukemia ip in BDF1 mice, survival T/C
# ASSAY_NAME: NCI In Vivo Anticancer Drug Screen. Data for tumor model L1210 Leukemia (intraperitoneal) in B6D2F1 (BDF1) mice
# PROTOCOL_CONDITIONS: endpoint: mean survival time; dose: 200.0 mg/kg/injection; schedule: Q04DX003 (ip); vehicle: saline; higher = longer survival
Toxic doses and inconclusive results are not listed.
MEASUREMENT_LABEL: T/C

// below: answered compounds
[[record]]
compound = "O=C(O)C1=CCC=CC1C(=O)O (stereo not drawn)"
tested_target = "L1210 leukemia ip in BDF1 mice, survival T/C"
measurement_label = "T/C"
result = "93 % of control"

[[record]]
compound = "COC(=O)C(CCCN=C(N)N)NC(=O)OCc1ccccc1 (stereo not drawn)"
tested_target = "L1210 leukemia ip in BDF1 mice, survival T/C"
measurement_label = "T/C"
result = "110 % of control"

[[record]]
compound = "C[n+]1ccccc1/C=N/O"
tested_target = "L1210 leukemia ip in BDF1 mice, survival T/C"
measurement_label = "T/C"
result = "94 % of control"

[[record]]
compound = "C=C(C)C1CC=C(C)CC1 (stereo not drawn)"
tested_target = "L1210 leukemia ip in BDF1 mice, survival T/C"
measurement_label = "T/C"
result = "97 % of control"


Moving on to the next compound.
Any idea what its T/C is? The compound is O=C(N1C(c2ccc(Cl)cc2)CC2(CC1c1ccc(Cl)cc1)SSC1(CC(c3ccc(Cl)cc3)N(C(=O)C(F)(F)F)C(c3ccc(Cl)cc3)C1)S2)C(F)(F)F (stereo not drawn)
97 % of control

Values compiled from PubChem BioAssay AID248.
